# Test system: G401
# protocol-details: relative viability vs DMSO control (72 h) (fraction); higher = more viable cells
# assay-context: 0.00017 µM
Structures can show the parent of a compound that is named as a salt.
Reported relative viability values follow for various compounds

# compound, relative viability
records = [
    ("N#CC[C@H](C1CCCC1)n1cc(-c2ncnc3[nH]ccc23)cn1 [Ruxolitinib]", 0.971),
    ("Cn1cc(-c2cc3c(N4CCN(c5ncc([C@@](C)(N)c6ccc(F)cc6)cn5)CC4)ncnn3c2)cn1 [Avapritinib]", 0.895),
    ("CC(C)NC(=O)C1CCC(n2c(NC(=O)c3ccc(F)cc3)nc3ccc(CN4CCC(C(C)(C)O)CC4)cc32)CC1 (centres undefined) [Belizatinib]", 1.01),
    ("COc1cccc2c1C(=O)c1c(O)c3c(c(O)c1C2=O)C[C@@](O)(C(=O)CO)C[C@@H]3O[C@H]1C[C@H](N)[C@H](O)[C@H](C)O1 [Doxorubicin Hydrochloride]", 1.03),
]
